Data origin: the NIST ThermoML archive (doi:10.1016/j.fluid.2016.02.009)

conditions: 303.15 K; 15000 kPa; Liquid; Vibrating tube method
parameterMeasured: mass density (kg/m3)

mass density lookup needed for CC(C)OC(C)C [diisopropyl ether] , thanks.
731.48

Consider the compound shown here: CCCCOC [butyl methyl ether] What is its recorded mass density?
751.6

Could you tell me which mass density is on file for CCCOCCC [dipropyl ether] ?
753.68

Please look up its mass density: CC(C)CCOCCC(C)C [di-(3-methylbutyl) ether]
779.46

I'd like to know its mass density. The compound in question is CCOC(C)(C)C [2-ethoxy-2-methylpropane]
747.69

What does the record list as mass density for COC(C)(C)C [2-methoxy-2-methylpropane] ?
747.37

Name the recorded mass density for CCCCCOCCCCC [dipentyl ether] .
787

Fill in: mass density of CCCCOCC [butyl ethyl ether] is ___
755.66

====

settings: 288.15 K; 10000 kPa; Liquid; Vibrating tube method
parameterMeasured: mass density (kg/m3)

Value lookup for mass density; key = CC(C)CCOCCC(C)C [di-(3-methylbutyl) ether]
786.89

# get_value(readout='mass density', item= CCCOCCC [dipropyl ether] )
762.5

If you can, please state the reported mass density value of CCOC(C)(C)C [2-ethoxy-2-methylpropane] .
756.63

What does the record list as mass density for CC(C)OC(C)C [diisopropyl ether] ?
740.14

Which mass density is listed for CCCCCOCCCCC [dipentyl ether] ?
794.65

What value of mass density has been reported for the following compound? CCCCOC [butyl methyl ether]
760.78

For the compound shown here, CCCCOCC [butyl ethyl ether] , give the reported mass density.
764.48

mass density for COC(C)(C)C [2-methoxy-2-methylpropane] ?
756.52

====

settings: 308.15 K; 20000 kPa; Liquid; Vibrating tube method
parameterMeasured: mass density (kg/m3)

Item under review: CCCCOC . Reported mass density?
751.8

// returns reported mass density for input CCCOCCC
753.95

// query mass density value for entry COC(C)(C)C
747.84

Fill in the blank: the reported mass density of CCOC(C)(C)C is ____.
748.18

Could you share which mass density value was measured for CCCCCOCCCCC ?
787

Recorded mass density for CC(C)OC(C)C , please?
732.2

Consider the compound CC(C)CCOCCC(C)C and give its measured mass density.
779.67

Given the entry CCCCOCC , report its measured mass density.
755.87

====

details: 288.15 K; 55000 kPa; Liquid; Vibrating tube method
parameterMeasured: mass density (kg/m3)

Recorded mass density of CCCOCCC , please.
796.16

Can you look up the measured mass density of CC(C)CCOCCC(C)C for me?
815.91

Please give the measured mass density for this compound: CC(C)OC(C)C
777.77

Which mass density value is on record for CCCCOC ?
794.8

Value lookup for mass density; key = COC(C)(C)C
792.3

mass density for CCOC(C)(C)C ?
792.37

For the compound shown here, CCCCCOCCCCC , give the reported mass density.
822.24

// query mass density value for entry CCCCOCC
797.51

====

conditions: 333.15 K; 40000 kPa; Liquid; Vibrating tube method
parameterMeasured: mass density (kg/m3)

Sample CCCCOCC [butyl ethyl ether] — what was its mass density?
753.02

// query mass density value for entry CC(C)CCOCCC(C)C [di-(3-methylbutyl) ether]
777.39

Which mass density reading was recorded for the molecule CCCOCCC [dipropyl ether] ?
751.24

Could you tell me which mass density is on file for CC(C)OC(C)C [diisopropyl ether] ?
731.23

// lookup mass density for CCOC(C)(C)C [2-ethoxy-2-methylpropane]
746.21

For the molecule shown here, CCCCCOCCCCC [dipentyl ether] , give the reported mass density.
783.87

What value of measured mass density is listed for CCCCOC [butyl methyl ether] ?
748.78
